Data provenance: paper PMC4329827

# target: T1, MOCS2B wild-type, large subunit of MPT synthase (human, UniProt O96007 1-188)
# T1 sequence (looked up): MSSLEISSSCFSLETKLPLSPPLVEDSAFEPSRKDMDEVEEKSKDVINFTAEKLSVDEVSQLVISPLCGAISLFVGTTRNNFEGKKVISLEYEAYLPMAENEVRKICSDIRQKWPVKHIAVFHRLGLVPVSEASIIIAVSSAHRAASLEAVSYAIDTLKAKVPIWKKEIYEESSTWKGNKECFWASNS
# assayDetails: ITC
reportedProperty: pKd
The quantity pKd is defined as the negative base-10 logarithm of the molar concentration.

Lookup: Need pKd of MOCS2A, small subunit of MPT synthase (activated, thiocarboxylated) (natural protein, human, UniProt O96033 1-88, looked up, thiocarboxylated C-terminal tail) MVPLCQVEVLYFAKSAEITGVRSETISVPQEIKALQLWKEIETRHPGLADVRNQIIFAVRQEYVELGDQLLVLQPGDEIAVIPPISGG , thanks.
Found: 6.44
